# Assay System: UniProt P02768
# Measurement Protocol: Binding affinity to human serum albumin
# Type: ADME
# Condition Summary: isolated protein
Measure: Activity (%)
State the answer as a number, implicitly in %.

COC(=O)CN1CCC2=C(C1)S(=O)(=O)N=C(c1c(O)c3ccccc3n(CCC(C)C)c1=O)N2 :: 97.6
CC(C)CCn1c(=O)c(C2=Nc3ccc(OCC(N)=O)cc3S(=O)(=O)N2)c(O)c2cccnc21 :: 98.4

# lookup: Activity of CC(C)CCn1c(=O)c(C2=NS(=O)(=O)C3=C(CCN(CCCN)C3)N2)c(O)c2ccccc21
98.3

So what does the record say about Activity for CC(=O)N1CCC2=C(C1)S(=O)(=O)N=C(c1c(O)c3ccccc3n(CCC(C)C)c1=O)N2 ?
98

Could you share which Activity value was measured for CC(C)CCn1c(=O)c(C2=NS(=O)(=O)c3cc(OCC(N)=O)ccc3N2)c(O)c2sccc21 ?
98.3

Find the recorded Activity belonging to CC(C)CCn1c(=O)c(C2=NS(=O)(=O)C3=C(CCN(CCC(N)=O)C3)N2)c(O)c2ccccc21 and report it.
98

For the compound shown here, CC(C)CCn1c(=O)c(C2=NS(=O)(=O)C3=C(CCNC3)N2)c(O)c2ccccc21 , give the reported Activity.
98.2

Give the measured Activity of CC(C)CCn1c(=O)c(C2=NS(=O)(=O)c3ccccc3N2)c(O)c2cn[nH]c21 .
97.6

###

# Assay System: Albumin (Homo sapiens, UniProt P02768)
# Sequence (P02768 whole entry): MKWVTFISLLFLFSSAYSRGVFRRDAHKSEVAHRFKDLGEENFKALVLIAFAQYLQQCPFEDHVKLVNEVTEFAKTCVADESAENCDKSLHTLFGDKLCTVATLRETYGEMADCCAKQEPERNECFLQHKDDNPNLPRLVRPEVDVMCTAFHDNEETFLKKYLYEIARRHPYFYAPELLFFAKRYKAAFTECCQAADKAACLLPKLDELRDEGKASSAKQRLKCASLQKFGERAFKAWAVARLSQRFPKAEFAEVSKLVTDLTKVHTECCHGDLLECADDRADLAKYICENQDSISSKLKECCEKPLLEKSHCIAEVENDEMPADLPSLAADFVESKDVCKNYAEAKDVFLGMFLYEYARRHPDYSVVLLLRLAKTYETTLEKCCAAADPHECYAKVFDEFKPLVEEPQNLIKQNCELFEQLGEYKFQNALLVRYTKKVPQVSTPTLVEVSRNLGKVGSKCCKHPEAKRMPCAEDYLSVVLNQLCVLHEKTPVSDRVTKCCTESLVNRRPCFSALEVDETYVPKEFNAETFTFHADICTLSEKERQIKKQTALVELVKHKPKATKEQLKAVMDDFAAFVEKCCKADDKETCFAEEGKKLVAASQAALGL
# Measurement Protocol: Binding affinity to human serum albumin
# Format: ADME
# Condition Summary: isolated protein
Measure: Activity (%)
Report only the number, with the unit % understood.

CC(C)CCn1c(=O)c(C2=NS(=O)(=O)c3cnccc3N2)c(O)c2ccccc21 :: 99
C[C@@H](Oc1ccc2c(c1)S(=O)(=O)N=C(c1c(O)c3cccnc3n(CCC3CC3)c1=O)N2)C(N)=O :: 97.8
CC(C)CCn1c(=O)c(C2=NS(=O)(=O)C3=C(CCN(C(=O)Nc4ccccc4)C3)N2)c(O)c2ccccc21 :: 99.4
O=c1c(C2=NS(=O)(=O)c3cc(O)ccc3N2)c(O)c2cccnc2n1CCC1CC1 :: 98.8
CC(C)CCn1c(=O)c(C2=NS(=O)(=O)c3cc(O)ccc3N2)c(O)c2cccnc21 :: 99
CC(C)CCn1c(=O)c(C2=NS(=O)(=O)c3c[n+]([O-])ccc3N2)c(O)c2ccccc21 :: 97.7

// returns reported Activity for input CC(C)CCn1c(=O)c(C2=NS(=O)(=O)c3cc(OCC(N)=O)ccc3N2)c(O)c2ccsc21
98.7
